- Measured target: FAAH (Rattus norvegicus, UniProt P97612)
- Construct: Preparation of Rat Brain Membranes Preparations (FAAH Enzyme Solution); from tissue; host or cells: rat cerebrum (brain membrane preparation)
- Sequence (P97612 whole entry): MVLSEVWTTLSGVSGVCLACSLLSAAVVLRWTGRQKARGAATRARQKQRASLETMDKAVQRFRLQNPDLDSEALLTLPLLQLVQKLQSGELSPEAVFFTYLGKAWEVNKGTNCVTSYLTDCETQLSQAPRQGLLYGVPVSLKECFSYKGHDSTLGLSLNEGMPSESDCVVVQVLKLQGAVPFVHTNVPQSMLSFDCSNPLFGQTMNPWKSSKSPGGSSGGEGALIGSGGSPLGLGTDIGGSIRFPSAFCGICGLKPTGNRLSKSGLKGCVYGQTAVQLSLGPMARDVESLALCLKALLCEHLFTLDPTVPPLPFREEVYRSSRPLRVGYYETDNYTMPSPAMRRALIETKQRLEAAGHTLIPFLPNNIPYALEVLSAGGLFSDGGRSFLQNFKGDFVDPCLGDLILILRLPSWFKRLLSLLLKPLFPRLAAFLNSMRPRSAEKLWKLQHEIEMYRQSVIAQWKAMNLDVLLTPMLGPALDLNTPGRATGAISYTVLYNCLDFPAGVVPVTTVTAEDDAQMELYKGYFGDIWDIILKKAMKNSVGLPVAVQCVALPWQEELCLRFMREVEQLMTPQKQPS
- Test name: Determination of FAAH inhibitory activity in rat (rat brain membrane preparations, [3H]-anandamide hydrolysis)
- Format: biochemical
- Measurement conditions: rat brain membrane preparations; test substance 0.1 nM to 1 μM; read-out: FAAH Inhibition IC50
Attribute measured: IC50 (nM)

Cn1c(=O)n(C(=O)N2CCN(c3ccccc3F)CC2)c2cnc(-c3ccccc3)nc21 : 30
CC(C)c1ccc(CCc2ncc3c(n2)n(C(=O)N(C)C)c(=O)n3C)cc1 : 10
CN(C)C(=O)n1c(=O)n(C)c2cnc(CCc3cccc(OCC(F)(F)F)c3)nc21 : 15
CC(C)n1c(=O)n(C(=O)N2CCCC2)c2cnc(-c3ccccc3)nc21 : 12
Cc1ccc(CCc2ncc3c(n2)n(C(=O)N2CCC2)c(=O)n3C)cc1 : 10
COc1cccc(-c2ncc3c(n2)n(C)c(=O)n3C(=O)N(C)Cc2cccc(F)c2)c1 : 23
CN(C)C(=O)n1c(=O)n(C)c2cnc(-c3cccc(F)c3)nc21 : 77
CCc1cccc(CCc2ncc3c(n2)n(C(=O)N(C)C)c(=O)n3C)c1 : 10
COc1ccc(CCc2ncc3c(n2)n(C)c(=O)n3C(=O)N2CCCC2)cc1 : 46
Cc1ccccc1N1CCN(C(=O)n2c(=O)n(C)c3nc(-c4ccccc4)ncc32)CC1 : 42
